- System: YAP/TAZ
- EXPERIMENT NOTES: Screening: YAP/TAZ activity reporter (8xGTIIC plasmid) assay in NUGC3 cells (luminescence % of DMSO)
- Assay type: cell-based, human
- EXPERIMENTAL CONDITIONS: YAP/TAZ activity reporter (8×GTIIC), NUGC3 cells, luminescence relative to DMSO; concentration not given
Please use T whenever 8×GTIIC is not below 70%, and F whenever it is.

COMPOUND: O=S(=O)(CC1CCCCC1)c1ccc2ccccc2c1
ASSIGNED CLASS: F

COMPOUND: CCCCCCS(=O)(=O)c1ccc(-c2ccccc2)cc1
ASSIGNED CLASS: F

COMPOUND: O=S(=O)(CCc1ccccc1)c1ccc(C2CCCCC2)cc1
ASSIGNED CLASS: T

COMPOUND: CC(C)c1cc(C(C)C)c(S(=O)(=O)CC2CCCC2)c(C(C)C)c1
ASSIGNED CLASS: F

COMPOUND: Cc1ccc(S(=O)(=O)CC2CCC(C3CC3)CC2)c(C)c1 (centres unmarked) [SA050]
ASSIGNED CLASS: T

COMPOUND: COc1ccc(S(=O)(=O)C2CCC(CS(=O)(=O)c3c(C)c(C)c(C)c(C)c3C)CC2)cc1 (centres unmarked)
ASSIGNED CLASS: F

COMPOUND: CCC1CCC(C(C)S(=O)(=O)c2c(C)cc(C(C)(C)C)cc2C)CC1 (centres unmarked)
ASSIGNED CLASS: T

COMPOUND: CC(=O)C1CC(c2cccc(C)c2)CC1c1ccccc1 (centres unmarked)
ASSIGNED CLASS: T

COMPOUND: O=S(=O)(CCc1ccccc1)c1ccccc1
ASSIGNED CLASS: F

COMPOUND: Cc1ccccc1S(=O)(=O)CC1CCC(S(C)(=O)=O)CC1 (centres unmarked)
ASSIGNED CLASS: T

COMPOUND: CCCc1ccc(S(=O)(=O)CC2CCC(C3CC3)CC2)cc1OCC (centres unmarked)
ASSIGNED CLASS: F

COMPOUND: Cc1c(C)c(C)c(S(=O)(=O)CC2CCC(S(C)(=O)=O)CC2)c(C)c1C (centres unmarked)
ASSIGNED CLASS: F

COMPOUND: CCCCCCS(=O)(=O)c1c(C(C)C)cc(C(C)C)cc1C(C)C
ASSIGNED CLASS: T

COMPOUND: CC1(C)CC(CS(=O)(=O)c2ccc(C(C)(C)C)cc2)CC(C)(C)S1
ASSIGNED CLASS: F

COMPOUND: CC(=O)C1C=C(c2ccc(C)cc2)CC1c1ccc2ccccc2c1 (centres unmarked)
ASSIGNED CLASS: T

COMPOUND: CC1(C)CC(CS(=O)(=O)c2ccc(C3CCCCC3)cc2)CC(C)(C)S1
ASSIGNED CLASS: T

COMPOUND: Cc1ccc(S(=O)(=O)CC2CCC(C3CC3)CC2)cc1 (centres unmarked)
ASSIGNED CLASS: T

COMPOUND: CCc1ccc(CC)c(S(=O)(=O)CC2CCC(S(C)(=O)=O)CC2)c1 (centres unmarked)
ASSIGNED CLASS: F

COMPOUND: CC(C)(C)c1ccc(S(=O)(=O)CCc2ccccc2)cc1
ASSIGNED CLASS: F

COMPOUND: Cc1ccc(S(=O)(=O)CC2CCC(C3CC3)CC2)cc1C (centres unmarked) [SA042]
ASSIGNED CLASS: T

COMPOUND: Cc1cccc(S(=O)(=O)CC2CCC(C3CC3)CC2)c1 (centres unmarked) [SA041]
ASSIGNED CLASS: T

COMPOUND: CCC(C)(C)c1ccc(S(=O)(=O)CC2CCCC2)cc1
ASSIGNED CLASS: F

COMPOUND: CCc1cc(C)c(S(=O)(=O)CC2CC(C)(C)CC(C)(C)C2)cc1C(C)C
ASSIGNED CLASS: F

COMPOUND: Cc1cc(C)c(C)c(S(=O)(=O)CC2CCC(S(C)(=O)=O)CC2)c1C (centres unmarked) [SA086]
ASSIGNED CLASS: F

COMPOUND: CCC(C)(C)c1ccc(S(=O)(=O)CCC2CCCCC2)cc1
ASSIGNED CLASS: F

COMPOUND: Cc1cccc(S(=O)(=O)CC2CCC(C3CC3)CC2)c1C (centres unmarked)
ASSIGNED CLASS: T

COMPOUND: Cc1ccc(S(=O)(=O)CC2CCC(S(C)(=O)=O)CC2)c(C)c1 (centres unmarked)
ASSIGNED CLASS: F

COMPOUND: Cc1ccc(S(=O)(=O)CC2CCC(S(C)(=O)=O)CC2)cc1 (centres unmarked) [SA060]
ASSIGNED CLASS: T

COMPOUND: O=S(=O)(CC1CCCC1)c1ccc(-c2ccccc2)cc1
ASSIGNED CLASS: F

COMPOUND: Cc1ccc(S(=O)(=O)CC2CCC(C3CC3)CC2)c(C)c1 (centres unmarked) [SA057]
ASSIGNED CLASS: T

COMPOUND: Cc1ccc(C)c(S(=O)(=O)CC2CCC(S(C)(=O)=O)CC2)c1 (centres unmarked)
ASSIGNED CLASS: F
